Tested on: Escherichia coli TOP10
Experiment: shrunken log2 fold change of peptide-encoding DNA abundance (4.5 h post-induction vs induction); higher = less antimicrobial activity (less host growth inhibition)
Settings: time post-induction: 4.5 h; library: site-saturation at positions 5, 18, 19, 20
Entry class follows shrunken log2 fold change: one = under -0.04, two = from -0.04 up to 0.05, three = 0.05 and over

Lookup: Using the reported shrunken log2 fold change, which band applies to RRIRHRPPRLPRPRPRPYGVPRP ?
Found: one

Lookup: Each sequence maps to one class by shrunken log2 fold change. Which class for RRIRRRPPRLPRPRPRPYDYPRP ?
Found: two

Lookup: Field: class (shrunken log2 fold change) — entry: RRIRMRPPRLPRPRPRPYGYPRP
Found: two

Lookup: Each sequence maps to one class by shrunken log2 fold change. Which class for RRIRKRPPRLPRPRPRPYHDPRP ?
Found: two

----------
Tested on: Escherichia coli TOP10
Assay: shrunken log2 fold change of peptide-encoding DNA abundance (4.5 h post-induction vs induction); higher = less antimicrobial activity (less host growth inhibition)
Conditions: time post-induction: 4.5 h; library: site-saturation at positions 5, 18, 19, 20
quantity-kind: shrunken log2 fold change
One number for each entry.

>>> df
            query_sequence  assay_result
0  RRIRRRPPRLPRPRPRPGAGPRP         0.475
1  RRIRRRPPRLPRPRPRPEPRPRP          1.02
2  RRIRGRPPRLPRPRPRPSPYPRP        -0.148
3  RRIRIRPPRLPRPRPRPDENPRP         0.108
4  RRIRERPPRLPRPRPRPTSCPRP        -0.178

For every listed record, write down its shrunken log2 fold change.
1. RRIRSRPPRLPRPRPRPPWDPRP
2. RRIRFRPPRLPRPRPRPNIAPRP
3. RRIRMRPPRLPRPRPRPNEGPRP
4. RRIRCRPPRLPRPRPRPRMWPRP
5. RRIRMRPPRLPRPRPRPPQLPRP
6. RRIRDRPPRLPRPRPRPHHSPRP
7. RRIRYRPPRLPRPRPRPKPPPRP
8. RRIRNRPPRLPRPRPRPIRMPRP

Found:
0.409
-0.255
0.137
0.0419
0.279
-1.11
0.524
-0.00776

The following sequences each have a reported value; give each one's shrunken log2 fold change.
1. RRIRRRPPRLPRPRPRPHCHPRP
2. RRIRTRPPRLPRPRPRPQEDPRP

Found:
[-0.134, -0.01]

----------
System: Escherichia coli TOP10;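 further: peptides expressed intracellularly from a pBAD plasmid library in pooled LB shake-flask culture, induced with 0.3% L-arabinose, DNA abundance read by NGS, three biological replicates, DESeq2 with apeglm shrinkage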
Assay: shrunken log2 fold change of peptide-encoding DNA abundance (4.5 h post-induction vs induction); higher = less antimicrobial activity (less host growth inhibition)
Conditions: time post-induction: 4.5 h; library: site-saturation at positions 5, 18, 19, 20
Note to self: values exactly at -0.03 are true (1). So shrunken log2 fold change at or above -0.03 is true (1), below is false (0).

The examples below pair each entry with its known result.
>>> df
            query_sequence             test_system  qualitative_label
0  RRIRTRPPRLPRPRPRPTHQPRP  Escherichia coli TOP10           true (1)
1  RRIRVRPPRLPRPRPRPQVCPRP  Escherichia coli TOP10           true (1)
2  RRIRARPPRLPRPRPRPNVPPRP  Escherichia coli TOP10           true (1)
3  RRIRYRPPRLPRPRPRPIWNPRP  Escherichia coli TOP10           true (1)

Lookup: Say whether RRIRCRPPRLPRPRPRPRRHPRP shows shrunken log2 fold change of -0.03 or more.
Found: false (0)

Lookup: Would you say RRIRVRPPRLPRPRPRPIKLPRP shows shrunken log2 fold change at minimum -0.03?
Found: false (0)

Lookup: Kindly determine if shrunken log2 fold change recorded for RRIRQRPPRLPRPRPRPKQTPRP is above or exactly -0.03.
Found: false (0)

Lookup: Is shrunken log2 fold change for RRIRERPPRLPRPRPRPFPQPRP at or above -0.03?
Found: true (1)
